B1: GFOD1 (parent)
chain: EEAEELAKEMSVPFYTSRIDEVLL

- Variants of: B1
- test method notes: protein stability index of a GFP-peptide fusion (GPS, HEK-293T) (PSI 1-6); higher = more stable;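 also: lentivirally expressed fusions sorted by FACS into six bins by GFP to DsRed ratio, PSI derived from sequencing read proportions per bin multiplied by bin number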
- measurement conditions: c terminus: a fixed tail appended
readout kind: protein stability index
Numbers only.

R18F; 3.17

For every item below, please supply its protein stability index.
1. E5Y
2. E9V
3. F14H
4. A7K
5. L24F
6. Y15M

[A]
3.98
3.1
4.2
3.32
3.55
4.14

State recorded protein stability index for all listed variants.
1. D20T
2. E2H
3. M10P
4. A3Y
5. E21Q

[A]
[2.66, 3.06, 4.5, 3.38, 3.39]

// for each variant below, give its protein stability index
1. L23W
2. Y15T
3. E1G
4. Y15C

[A]
[3.02, 4.91, 2.43, 3.97]

Note to self: protein stability index recorded for F14A was 4.46

These entries and their values trace back to the supplement of paper PMC10567573.
